Recorded values, source paper PMC9090415.

- study_target: UniProtKB Q8ILY1
- assay_remarks: Fluorescence-based high-throughput DNA polymerase assay (molecular beacon), primary screen and dose-response
- Type: biochemical
- details: DRC-1; 90'; conc 80
quantity_name: % inhibition Apol 90' (%)

{"compound": "O=c1nc(/C=C/c2ccc(Br)cc2)oc2ccccc12", "measured_result": 92.172}
{"compound": "Cc1cc(C)c2c(c1)C1C=CCC1C(c1ccc(C(=O)O)cc1)N2 (stereo not drawn)", "measured_result": 94.9161}
{"compound": "O=C(O)c1ccc(COc2cc([N+](=O)[O-])cc3cccnc23)cc1", "measured_result": 95.378}

###

- study_target: P. falciparum apicoplast DNA polymerase (Pf-apPOL) (Plasmodium falciparum)
- Sequence (Q8ILY1 entry or part of it): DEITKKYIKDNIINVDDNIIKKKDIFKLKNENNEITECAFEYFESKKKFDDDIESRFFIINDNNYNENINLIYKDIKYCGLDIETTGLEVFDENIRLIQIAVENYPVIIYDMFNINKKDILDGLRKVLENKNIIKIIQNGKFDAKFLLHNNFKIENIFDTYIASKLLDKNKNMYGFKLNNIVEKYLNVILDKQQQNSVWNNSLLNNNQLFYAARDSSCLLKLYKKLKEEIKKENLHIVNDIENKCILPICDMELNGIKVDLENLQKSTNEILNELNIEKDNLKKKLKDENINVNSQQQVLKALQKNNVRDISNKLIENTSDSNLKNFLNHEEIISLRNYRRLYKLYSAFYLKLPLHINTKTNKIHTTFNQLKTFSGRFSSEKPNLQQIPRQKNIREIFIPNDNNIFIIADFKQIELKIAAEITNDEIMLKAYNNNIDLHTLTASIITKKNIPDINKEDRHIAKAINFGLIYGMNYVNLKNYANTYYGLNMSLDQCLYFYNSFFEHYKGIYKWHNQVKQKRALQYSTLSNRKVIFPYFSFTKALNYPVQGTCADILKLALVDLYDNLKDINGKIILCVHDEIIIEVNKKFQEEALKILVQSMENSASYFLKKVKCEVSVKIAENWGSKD
- assay_remarks: Fluorescence-based high-throughput DNA polymerase assay (molecular beacon), primary screen and dose-response;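 on % inhibition apPOL 180': test concentration in µM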
- Format: biochemical
- details: DRC-2; 180'; concentration 10
quantity_name: % inhibition apPOL 180'

{"compound": "Cc1ccc(NC(=O)C2CCN(C(=O)c3cc4ccsc4[nH]3)CC2)c(Br)c1", "study_target": "P. falciparum apicoplast DNA polymerase (Pf-apPOL) (Plasmodium falciparum)", "measured_result": "34%"}
{"compound": "CC(NC(=O)Cc1cc(=O)[nH]c(SCc2cccc(Cl)c2)n1)c1ccccc1 (stereo not drawn)", "study_target": "P. falciparum apicoplast DNA polymerase (Pf-apPOL) (Plasmodium falciparum)", "measured_result": "20%"}
{"compound": "O=[N+]([O-])/C=C/c1ccc(-c2ccc(Br)cc2)o1", "study_target": "P. falciparum apicoplast DNA polymerase (Pf-apPOL) (Plasmodium falciparum)", "measured_result": "39%"}
{"compound": "Cc1ccccc1C(=O)N1CCc2c(nc3cc(-c4ccccc4)[nH]n3c2=O)C1", "study_target": "P. falciparum apicoplast DNA polymerase (Pf-apPOL) (Plasmodium falciparum)", "measured_result": "16%"}
{"compound": "O=C1N/C(=N/c2ccccc2Cl)S/C1=C/c1ccc([N+](=O)[O-])o1", "study_target": "P. falciparum apicoplast DNA polymerase (Pf-apPOL) (Plasmodium falciparum)", "measured_result": "31%"}
{"compound": "Cc1cccc(CC(=O)N2CCc3c(nc4cc(-c5ccccc5)[nH]n4c3=O)C2)c1", "study_target": "P. falciparum apicoplast DNA polymerase (Pf-apPOL) (Plasmodium falciparum)", "measured_result": "44%"}
{"compound": "OC(C#Cc1ccccc1)c1ccco1 (stereo not drawn)", "study_target": "P. falciparum apicoplast DNA polymerase (Pf-apPOL) (Plasmodium falciparum)", "measured_result": "58%"}
{"compound": "COc1ccc(NC(=O)Cn2nc3c(cc2=O)CCC3)cc1Cl", "study_target": "P. falciparum apicoplast DNA polymerase (Pf-apPOL) (Plasmodium falciparum)", "measured_result": "69%"}
{"compound": "CCN1C(=O)C(=Cc2cccc(OC)c2O)SC1=S", "study_target": "P. falciparum apicoplast DNA polymerase (Pf-apPOL) (Plasmodium falciparum)", "measured_result": "-2.72%"}
{"compound": "CC(C)(C)OC(=O)COc1ccc2cc(-c3ccccc3)c(=O)oc2c1", "study_target": "P. falciparum apicoplast DNA polymerase (Pf-apPOL) (Plasmodium falciparum)", "measured_result": "1.59%"}
{"compound": "Cc1cccc(-c2nnc3ccc(NS(=O)(=O)c4ccc(C)c(C)c4)nn23)c1", "study_target": "P. falciparum apicoplast DNA polymerase (Pf-apPOL) (Plasmodium falciparum)", "measured_result": "23%"}
{"compound": "CCC(C)NC(=O)c1cc(NC(C)=O)cc2nc(C)ccc12 (stereo not drawn)", "study_target": "P. falciparum apicoplast DNA polymerase (Pf-apPOL) (Plasmodium falciparum)", "measured_result": "12%"}
{"compound": "COc1ccc(S(=O)(=O)/N=C2\\NC(=O)/C(=C3\\C(=O)Nc4ccc([N+](=O)[O-])cc43)S2)cc1", "study_target": "P. falciparum apicoplast DNA polymerase (Pf-apPOL) (Plasmodium falciparum)", "measured_result": "13%"}
{"compound": "O=C1c2ccccc2C(=O)c2c1oc1c3c(ccc21)OCN(C1CCCC1)C3", "study_target": "P. falciparum apicoplast DNA polymerase (Pf-apPOL) (Plasmodium falciparum)", "measured_result": "47%"}
{"compound": "O=c1[nH]c2ccc(Br)cc2c(-c2ccccc2)c1C1=NNC(c2ccco2)C1 (stereo not drawn)", "study_target": "P. falciparum apicoplast DNA polymerase (Pf-apPOL) (Plasmodium falciparum)", "measured_result": "41%"}
{"compound": "O=C1c2ccccc2C(=O)N1Oc1ccc([N+](=O)[O-])c([N+](=O)[O-])c1", "study_target": "P. falciparum apicoplast DNA polymerase (Pf-apPOL) (Plasmodium falciparum)", "measured_result": "13%"}
{"compound": "COc1cc(NC(=O)c2ccccc2)c(OC)cc1NC(=O)Cc1cccs1", "study_target": "P. falciparum apicoplast DNA polymerase (Pf-apPOL) (Plasmodium falciparum)", "measured_result": "44%"}
{"compound": "Cl.NC(CO)C(=O)NNCc1ccc(O)c(O)c1O (stereo not drawn)", "study_target": "P. falciparum apicoplast DNA polymerase (Pf-apPOL) (Plasmodium falciparum)", "measured_result": "53%"}
